Provenance of the data: ChEMBL document CHEMBL1137356

Target protein (sequence): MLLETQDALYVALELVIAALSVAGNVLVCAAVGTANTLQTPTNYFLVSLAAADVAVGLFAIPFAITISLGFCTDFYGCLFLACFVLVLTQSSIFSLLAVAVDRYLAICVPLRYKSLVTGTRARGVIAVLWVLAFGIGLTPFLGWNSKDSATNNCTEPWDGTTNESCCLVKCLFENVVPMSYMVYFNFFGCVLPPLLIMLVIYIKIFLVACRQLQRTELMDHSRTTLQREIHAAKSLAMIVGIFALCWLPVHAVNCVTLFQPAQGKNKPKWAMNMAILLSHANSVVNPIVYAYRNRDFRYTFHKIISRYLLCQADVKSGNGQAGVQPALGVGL
observation_type: Ki (nM)

Consider the following illustrative entries.
{"structure_smiles_string": "CCCN1C(=O)N2C[C@@H](C(C)C)N=C2c2[nH]c(C34CCC(CCC(=O)O)(CC3)CC4)nc21", "Ki, nM": 3100}
{"structure_smiles_string": "CCCN1C(=O)N2C[C@@H](CC)N=C2c2[nH]c(C34CCC(CCC(=O)O)(CC3)CC4)nc21", "Ki, nM": 1900}

P: CCCN1C(=O)N2C[C@@H](C(C)C)N=C2c2[nH]c(C34CCC(O)(CC3)CC4)nc21
Q: CCCn1c(=O)c2[nH]c(C34CCC(O)(CC3)CC4)nc2n(CCC)c1=O
Query: // max by Ki over [ P , Q ] Pick one and reply with its label.
Result: P

I: CCCN1C(=O)N2C[C@@H](C)N=C2c2[nH]c(C34CCC(O)(CC3)CC4)nc21
II: CCCN1C(=O)N2C[C@@H](CC)N=C2c2[nH]c(C34CCC(O)(CC3)CC4)nc21
Query: # query: argmin of Ki over I and II Please identify the chosen entry by its label.
Result: II

----------
# assayed_system: Adenosine receptor A2a (Rattus norvegicus, UniProt P30543)
# Sequence (P30543 whole entry): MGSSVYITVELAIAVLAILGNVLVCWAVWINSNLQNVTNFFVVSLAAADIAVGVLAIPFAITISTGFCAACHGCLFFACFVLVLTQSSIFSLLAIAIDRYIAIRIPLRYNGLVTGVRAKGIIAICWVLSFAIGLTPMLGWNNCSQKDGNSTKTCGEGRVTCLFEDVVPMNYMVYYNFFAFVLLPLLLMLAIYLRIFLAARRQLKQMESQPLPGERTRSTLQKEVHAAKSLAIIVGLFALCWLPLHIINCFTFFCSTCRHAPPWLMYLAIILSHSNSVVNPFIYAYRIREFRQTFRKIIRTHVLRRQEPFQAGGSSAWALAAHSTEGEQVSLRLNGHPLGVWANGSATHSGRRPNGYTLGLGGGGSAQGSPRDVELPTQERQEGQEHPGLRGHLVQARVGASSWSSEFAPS
observation_type: Ki (nM)
The reply should contain only the number, in nM.

Query: State, for Adenosine receptor A2a (Rattus norvegicus, UniProt P30543), measured Ki of the compound listed here: `CCCN1C(=O)N2C[C@@H](CC)N=C2c2[nH]c(C34CCC(O)(CC3)CC4)nc21`
Result: 2700

----------
# assayed_system: Adenosine receptor A2a (Rattus norvegicus) (UniProt P30543)
# run_description: Displacement of [3H]ZM-241385 from adenosine A2A receptor in rat striatal membrane at 10 uM relative to control
# Type: cell membranes
# condition_description: Striatum
observation_type: Activity (%)

{"structure_smiles_string": "CCCN1C(=O)N2CCN=C2c2[nH]c(C34CCC(O)(CC3)CC4)nc21", "readout_number": 77}
{"structure_smiles_string": "CCCN1C(=O)N2C[C@@H](c3ccccc3)N=C2c2[nH]c(C34CCC(O)(CC3)CC4)nc21", "readout_number": 79}
{"structure_smiles_string": "CCCN1C(=O)N2C[C@@H](C(C)C)N=C2c2[nH]c(C34CCC(CCC(=O)O)(CC3)CC4)nc21", "readout_number": 74}
{"structure_smiles_string": "CCC[C@@H]1CN2C(=O)N(CCC)c3[nH]c(C45CCC(O)(CC4)CC5)nc3C2=N1", "readout_number": 90}
{"structure_smiles_string": "CCCN1C(=O)N2C[C@H](CC)N=C2c2[nH]c(C34CCC(C(=O)O)(CC3)CC4)nc21", "readout_number": 80}
